Protein target, amino acids: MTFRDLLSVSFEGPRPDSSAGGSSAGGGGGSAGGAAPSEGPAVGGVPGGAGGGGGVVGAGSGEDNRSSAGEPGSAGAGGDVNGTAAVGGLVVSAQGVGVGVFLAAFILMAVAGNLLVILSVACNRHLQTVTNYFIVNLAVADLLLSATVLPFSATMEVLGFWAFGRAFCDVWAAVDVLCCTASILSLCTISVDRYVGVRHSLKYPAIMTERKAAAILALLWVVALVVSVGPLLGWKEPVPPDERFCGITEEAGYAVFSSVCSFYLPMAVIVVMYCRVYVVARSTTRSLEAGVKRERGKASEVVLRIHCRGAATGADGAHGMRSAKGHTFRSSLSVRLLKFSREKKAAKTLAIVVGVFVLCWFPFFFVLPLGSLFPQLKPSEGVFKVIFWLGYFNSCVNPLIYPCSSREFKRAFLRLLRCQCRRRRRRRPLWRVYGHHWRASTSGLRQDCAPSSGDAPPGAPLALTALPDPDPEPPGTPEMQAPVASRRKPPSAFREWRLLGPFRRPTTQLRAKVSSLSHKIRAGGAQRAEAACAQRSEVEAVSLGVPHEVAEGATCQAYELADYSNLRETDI

{"columns": ["compound", "output unit", "Ki"],
 "data": [
  ["COc1ccc(N2C(=O)c3ccc(C(=O)NCC(O)CN4CCN(c5ccccc5OC(C)C)CC4)cc3C2=O)cc1 (stereo unspecified)", "µM", 0.051],
  ["CCOc1ccccc1OCCN[C@H](C)Cc1ccc(OC)c(S(N)(=O)=O)c1", "µM", 0.00018],
  ["COc1ccccc1N1CCN(CC(O)CNC(=O)c2ccc3c(c2)C(=O)N(c2cccc(F)c2)C3=O)CC1 (stereo unspecified)", "µM", 0.54],
  ["CC(C)Oc1ccccc1N1CCN(C[C@@H](O)CNC(=O)c2ccc3c(c2)C(=O)N(c2ccc(N(C)C)cc2)C3=O)CC1", "µM", 0.052],
  ["COc1ccccc1N1C(=O)c2ccc(C(=O)NCC(O)CN3CCN(c4ccccc4OC(C)C)CC3)cc2C1=O (stereo unspecified)", "µM", 0.072],
  ["CC(C)Oc1ccccc1N1CCN(C[C@@H](O)CNC(=O)c2ccc3c(c2)C(=O)N(c2cccc(F)c2)C3=O)CC1", "µM", 0.19]
]}

----------
# assayed system: Serotonin 1 (5-HT1) receptor (Rattus norvegicus) (UniProt P28564+P30940+P19327+P28565)
# assay notes: Compound at 1 uM was tested for the inhibition of radioligand [3H]5-HT binding to 5-hydroxytryptamine 1 receptor in rat cerebral cortex
# Type: tissue-based

{"columns": ["mol smiles", "output unit", "inhibition"],
 "data": [
  ["CC(C)Oc1ccccc1N1CCN(C[C@@H](O)CNC(=O)c2ccc3c(c2)C(=O)N(c2cccc(F)c2)C3=O)CC1", "%", 49],
  ["Cc1ccc(N2C(=O)c3ccc(C(=O)NCCCN4CCN(c5ccccc5OC(C)C)CC4)cc3C2=O)cc1", "%", 69],
  ["Cc1ccc(N2C(=O)c3ccc(C(=O)NC[C@H](O)CN4CCN(c5ccccc5OC(C)C)CC4)cc3C2=O)cc1", "%", 64],
  ["CC(C)Oc1ccccc1N1CCN(CCCNC(=O)c2ccc3c(c2)C(=O)N(c2cccc(F)c2)C3=O)CC1", "%", 88],
  ["CC(C)Oc1ccccc1N1CCN(C[C@@H](O)CNC(=O)c2ccc3c(c2)C(=O)N(c2ccc(N(C)C)cc2)C3=O)CC1", "%", 66],
  ["COc1ccc(N2C(=O)c3ccc(C(=O)NCCCN4CCN(c5ccccc5OC(C)C)CC4)cc3C2=O)cc1", "%", 90],
  ["CCOc1ccccc1OCCN[C@H](C)Cc1ccc(OC)c(S(N)(=O)=O)c1", "%", 62]
]}

----------
# assayed system: D(2) dopamine receptor (Homo sapiens)
# Sequence (P14416 whole entry): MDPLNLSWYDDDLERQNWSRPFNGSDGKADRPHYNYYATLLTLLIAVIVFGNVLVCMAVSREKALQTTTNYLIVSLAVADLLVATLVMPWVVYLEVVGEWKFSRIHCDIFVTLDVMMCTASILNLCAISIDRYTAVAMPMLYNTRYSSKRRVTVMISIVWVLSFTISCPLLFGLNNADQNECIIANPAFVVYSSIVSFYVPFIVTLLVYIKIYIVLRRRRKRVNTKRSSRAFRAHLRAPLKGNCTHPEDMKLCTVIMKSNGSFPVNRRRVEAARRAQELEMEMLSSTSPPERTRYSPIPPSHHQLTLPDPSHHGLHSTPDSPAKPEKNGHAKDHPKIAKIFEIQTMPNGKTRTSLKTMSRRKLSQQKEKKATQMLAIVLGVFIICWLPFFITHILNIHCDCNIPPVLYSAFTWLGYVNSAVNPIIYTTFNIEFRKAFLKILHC
# assay notes: Binding affinity towards recombinant human Dopamine receptor D2L was determined using [3H]spiperone as radioligand
pKi: −log10 of the molar value.
# pKi listing for each entry below
measurement name: pKi

{"columns": ["mol smiles", "value observed"],
 "data": [
  ["CC(C)Oc1ccccc1N1CCN(C[C@@H](O)CNC(=O)c2ccc3c(c2)C(=O)N(c2ccc(N(C)C)cc2)C3=O)CC1", 7.64],
  ["CCOc1ccccc1OCCN[C@H](C)Cc1ccc(OC)c(S(N)(=O)=O)c1", 7.89]
]}

----------
# assayed system: Alpha-2B adrenergic receptor (Rattus norvegicus) (UniProt P19328)
# Sequence (P19328 whole entry): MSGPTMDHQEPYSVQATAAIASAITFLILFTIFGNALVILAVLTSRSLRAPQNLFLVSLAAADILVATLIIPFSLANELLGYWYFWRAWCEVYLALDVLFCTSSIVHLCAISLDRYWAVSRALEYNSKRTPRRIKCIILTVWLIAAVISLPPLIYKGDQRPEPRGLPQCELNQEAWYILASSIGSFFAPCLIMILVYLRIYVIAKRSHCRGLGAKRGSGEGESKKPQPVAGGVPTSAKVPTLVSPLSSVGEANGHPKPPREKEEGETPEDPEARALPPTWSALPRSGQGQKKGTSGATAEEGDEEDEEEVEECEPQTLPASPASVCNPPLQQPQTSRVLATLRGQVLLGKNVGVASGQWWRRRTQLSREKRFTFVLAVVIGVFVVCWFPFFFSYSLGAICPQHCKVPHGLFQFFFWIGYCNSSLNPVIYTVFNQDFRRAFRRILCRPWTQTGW
# assay notes: Compound at 1 uM was tested for the inhibition of radioligand [3H]yohimbine binding to rat alpha-2B adrenergic receptor

{"columns": ["mol smiles", "inhibition / %"],
 "data": [
  ["CC(C)Oc1ccccc1N1CCN(C[C@@H](O)CNC(=O)c2ccc3c(c2)C(=O)N(c2ccc(N(C)C)cc2)C3=O)CC1", 73],
  ["CCOc1ccccc1OCCN[C@H](C)Cc1ccc(OC)c(S(N)(=O)=O)c1", 86],
  ["COc1ccc(N2C(=O)c3ccc(C(=O)NCCCN4CCN(c5ccccc5OC(C)C)CC4)cc3C2=O)cc1", 79],
  ["Cc1ccc(N2C(=O)c3ccc(C(=O)NC[C@H](O)CN4CCN(c5ccccc5OC(C)C)CC4)cc3C2=O)cc1", 75],
  ["Cc1ccc(N2C(=O)c3ccc(C(=O)NCCCN4CCN(c5ccccc5OC(C)C)CC4)cc3C2=O)cc1", 66],
  ["CC(C)Oc1ccccc1N1CCN(CCCNC(=O)c2ccc3c(c2)C(=O)N(c2cccc(F)c2)C3=O)CC1", 78],
  ["CC(C)Oc1ccccc1N1CCN(C[C@@H](O)CNC(=O)c2ccc3c(c2)C(=O)N(c2cccc(F)c2)C3=O)CC1", 70]
]}

----------
# assayed system: D(3) dopamine receptor (Homo sapiens)
# Sequence (P35462 whole entry): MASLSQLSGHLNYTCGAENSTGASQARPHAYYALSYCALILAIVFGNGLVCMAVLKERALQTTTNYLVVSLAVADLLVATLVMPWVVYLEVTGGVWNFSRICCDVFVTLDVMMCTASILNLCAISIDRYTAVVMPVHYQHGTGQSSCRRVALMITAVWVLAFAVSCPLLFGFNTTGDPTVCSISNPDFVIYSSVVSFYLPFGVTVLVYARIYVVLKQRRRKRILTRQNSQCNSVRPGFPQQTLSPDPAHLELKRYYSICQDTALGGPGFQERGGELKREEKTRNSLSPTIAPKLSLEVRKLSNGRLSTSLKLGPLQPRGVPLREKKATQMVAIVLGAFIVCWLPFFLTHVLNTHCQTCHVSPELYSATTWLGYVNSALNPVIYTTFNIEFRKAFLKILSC
# assay notes: Binding affinity towards recombinant human Dopamine receptor D3 was determined using [3H]spiperone as radioligand
pKi: −log10 of the molar value.
measurement name: pKi

{"columns": ["mol smiles", "assayed system", "value observed"],
 "data": [
  ["CCOc1ccccc1OCCN[C@H](C)Cc1ccc(OC)c(S(N)(=O)=O)c1", "D(3) dopamine receptor (Homo sapiens)", 9.55],
  ["CC(C)Oc1ccccc1N1CCN(C[C@@H](O)CNC(=O)c2ccc3c(c2)C(=O)N(c2ccc(N(C)C)cc2)C3=O)CC1", "D(3) dopamine receptor (Homo sapiens)", 7.21]
]}

----------
# inhibition listing for each entry below
# assayed system: 5-hydroxytryptamine receptor 1A (Homo sapiens) (UniProt P08908)
# Sequence (P08908 whole entry): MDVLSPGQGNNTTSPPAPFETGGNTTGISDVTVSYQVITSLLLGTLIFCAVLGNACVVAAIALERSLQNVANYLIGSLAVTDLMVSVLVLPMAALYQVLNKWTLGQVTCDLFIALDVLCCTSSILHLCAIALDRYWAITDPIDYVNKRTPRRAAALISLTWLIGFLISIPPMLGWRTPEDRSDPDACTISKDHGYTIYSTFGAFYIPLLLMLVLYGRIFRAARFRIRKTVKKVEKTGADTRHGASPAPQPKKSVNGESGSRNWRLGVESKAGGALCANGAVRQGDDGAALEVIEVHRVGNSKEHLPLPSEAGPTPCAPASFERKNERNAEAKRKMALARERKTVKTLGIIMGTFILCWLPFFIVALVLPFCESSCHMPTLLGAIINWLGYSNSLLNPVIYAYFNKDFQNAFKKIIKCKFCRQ
# assay notes: Compound at 1 uM was tested for the inhibition of radioligand [3H]8-OH-DPAT binding to recombinant human 5-hydroxytryptamine 1A receptor
measurement name: inhibition (%)

{"columns": ["compound", "assayed system", "output unit", "value observed"],
 "data": [
  ["CCOc1ccccc1OCCN[C@H](C)Cc1ccc(OC)c(S(N)(=O)=O)c1 [TAMSULOSIN]", "5-hydroxytryptamine receptor 1A (Homo sapiens) (UniProt P08908)", "%", 115],
  ["Cc1ccc(N2C(=O)c3ccc(C(=O)NC[C@H](O)CN4CCN(c5ccccc5OC(C)C)CC4)cc3C2=O)cc1", "5-hydroxytryptamine receptor 1A (Homo sapiens) (UniProt P08908)", "%", 92],
  ["Cc1ccc(N2C(=O)c3ccc(C(=O)NCCCN4CCN(c5ccccc5OC(C)C)CC4)cc3C2=O)cc1", "5-hydroxytryptamine receptor 1A (Homo sapiens) (UniProt P08908)", "%", 90],
  ["CC(C)Oc1ccccc1N1CCN(C[C@@H](O)CNC(=O)c2ccc3c(c2)C(=O)N(c2ccc(N(C)C)cc2)C3=O)CC1", "5-hydroxytryptamine receptor 1A (Homo sapiens) (UniProt P08908)", "%", 92],
  ["CC(C)Oc1ccccc1N1CCN(CCCNC(=O)c2ccc3c(c2)C(=O)N(c2cccc(F)c2)C3=O)CC1", "5-hydroxytryptamine receptor 1A (Homo sapiens) (UniProt P08908)", "%", 95],
  ["CC(C)Oc1ccccc1N1CCN(C[C@@H](O)CNC(=O)c2ccc3c(c2)C(=O)N(c2cccc(F)c2)C3=O)CC1", "5-hydroxytryptamine receptor 1A (Homo sapiens) (UniProt P08908)", "%", 98],
  ["COc1ccc(N2C(=O)c3ccc(C(=O)NCCCN4CCN(c5ccccc5OC(C)C)CC4)cc3C2=O)cc1", "5-hydroxytryptamine receptor 1A (Homo sapiens) (UniProt P08908)", "%", 104]
]}

----------
# assayed system: UniProt:P14416
# assay notes: Binding affinity towards recombinant human Dopamine receptor D2S was determined using [3H]spiperone as radioligand
pKi: −log10 of the molar value.
# pKi listing for each entry below

{"columns": ["mol smiles", "pKi"],
 "data": [
  ["CC(C)Oc1ccccc1N1CCN(C[C@@H](O)CNC(=O)c2ccc3c(c2)C(=O)N(c2ccc(N(C)C)cc2)C3=O)CC1", 7.60],
  ["CCOc1ccccc1OCCN[C@H](C)Cc1ccc(OC)c(S(N)(=O)=O)c1", 7.11]
]}

----------
# assayed system: 5-hydroxytryptamine receptor 7 (Homo sapiens, UniProt P34969)
# Sequence (P34969 whole entry): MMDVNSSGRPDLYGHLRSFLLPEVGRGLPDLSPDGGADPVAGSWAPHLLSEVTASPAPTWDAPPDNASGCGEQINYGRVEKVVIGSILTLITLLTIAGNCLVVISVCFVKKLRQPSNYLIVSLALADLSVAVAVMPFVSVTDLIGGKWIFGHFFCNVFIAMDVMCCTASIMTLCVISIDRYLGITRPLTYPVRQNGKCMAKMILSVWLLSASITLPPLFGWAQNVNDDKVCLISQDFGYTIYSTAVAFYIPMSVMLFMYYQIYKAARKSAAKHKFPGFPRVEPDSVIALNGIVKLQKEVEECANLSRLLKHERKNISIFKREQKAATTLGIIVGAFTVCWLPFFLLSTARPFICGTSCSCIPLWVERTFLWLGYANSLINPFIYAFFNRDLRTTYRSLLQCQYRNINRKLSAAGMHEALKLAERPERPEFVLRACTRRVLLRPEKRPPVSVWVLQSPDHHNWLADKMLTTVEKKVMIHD
# assay notes: Compound at 1 uM was tested for the inhibition of radioligand [3H]LSD binding to recombinant human 5-hydroxytryptamine 7 receptor

{"columns": ["mol smiles", "inhibition (%)"],
 "data": [
  ["Cc1ccc(N2C(=O)c3ccc(C(=O)NC[C@H](O)CN4CCN(c5ccccc5OC(C)C)CC4)cc3C2=O)cc1", 90],
  ["CC(C)Oc1ccccc1N1CCN(C[C@@H](O)CNC(=O)c2ccc3c(c2)C(=O)N(c2cccc(F)c2)C3=O)CC1", 95],
  ["CC(C)Oc1ccccc1N1CCN(CCCNC(=O)c2ccc3c(c2)C(=O)N(c2cccc(F)c2)C3=O)CC1", 92],
  ["Cc1ccc(N2C(=O)c3ccc(C(=O)NCCCN4CCN(c5ccccc5OC(C)C)CC4)cc3C2=O)cc1", 95],
  ["CC(C)Oc1ccccc1N1CCN(C[C@@H](O)CNC(=O)c2ccc3c(c2)C(=O)N(c2ccc(N(C)C)cc2)C3=O)CC1", 95],
  ["CCOc1ccccc1OCCN[C@H](C)Cc1ccc(OC)c(S(N)(=O)=O)c1", 74],
  ["COc1ccc(N2C(=O)c3ccc(C(=O)NCCCN4CCN(c5ccccc5OC(C)C)CC4)cc3C2=O)cc1", 92]
]}
